The measurements presented in this section are drawn from patent US20140056903A1.

Below, each of the binders is paired with its reported IC50 (SRE-luc, HEK293/hGFRα3/hRET cells, 100 pM hARTEMIN-mmH) value.
- target.or.system: T1, human GFRα3 on HEK293/hGFRα3/hRET/SRE-luc cells (human, UniProt O60609 32-382)
- T1 sequence: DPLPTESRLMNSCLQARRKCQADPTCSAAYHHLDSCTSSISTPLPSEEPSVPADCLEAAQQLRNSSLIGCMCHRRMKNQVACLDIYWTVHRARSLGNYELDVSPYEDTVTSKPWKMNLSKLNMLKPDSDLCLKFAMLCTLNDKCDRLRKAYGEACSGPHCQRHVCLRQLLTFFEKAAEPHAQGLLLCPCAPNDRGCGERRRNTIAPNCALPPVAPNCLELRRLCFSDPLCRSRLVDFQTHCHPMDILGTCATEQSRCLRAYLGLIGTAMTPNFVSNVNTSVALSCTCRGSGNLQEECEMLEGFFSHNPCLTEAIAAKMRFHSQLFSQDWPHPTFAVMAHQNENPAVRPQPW
- protocol.notes: cell-based or functional assay
quantity: IC50 (SRE-luc, HEK293/hGFRα3/hRET cells, 100 pM hARTEMIN-mmH) (nM)

[
  {
    "binder": "H4H2236N3 (antibody, human IgG4, V domains shown, human IgG4 Fc (H4H)) VH: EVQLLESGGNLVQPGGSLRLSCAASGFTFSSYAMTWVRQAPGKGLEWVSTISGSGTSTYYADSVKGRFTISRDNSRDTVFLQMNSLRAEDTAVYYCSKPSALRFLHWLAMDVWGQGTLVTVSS VL: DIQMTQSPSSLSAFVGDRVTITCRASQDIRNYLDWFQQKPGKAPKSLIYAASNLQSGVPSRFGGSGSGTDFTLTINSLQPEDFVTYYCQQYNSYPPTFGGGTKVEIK",
    "measurement.unit": "nM",
    "numeric.readout": 1.5
  },
  {
    "binder": "H4H2295S (antibody, human IgG4, V domains shown, human IgG4 Fc (H4H)) VH: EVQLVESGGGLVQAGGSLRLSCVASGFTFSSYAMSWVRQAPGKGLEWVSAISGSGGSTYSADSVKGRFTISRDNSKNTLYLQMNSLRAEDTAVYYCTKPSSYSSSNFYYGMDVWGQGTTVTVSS VL: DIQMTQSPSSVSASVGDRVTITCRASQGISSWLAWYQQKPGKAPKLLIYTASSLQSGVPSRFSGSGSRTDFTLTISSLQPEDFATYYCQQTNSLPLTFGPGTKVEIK",
    "measurement.unit": "nM",
    "numeric.readout": 1.5
  },
  {
    "binder": "H4H2293P (antibody, human IgG4, V domains shown, human IgG4 Fc (H4H)) VH: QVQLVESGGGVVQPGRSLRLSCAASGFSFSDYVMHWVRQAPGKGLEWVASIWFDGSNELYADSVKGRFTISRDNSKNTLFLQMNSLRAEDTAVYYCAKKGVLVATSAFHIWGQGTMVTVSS VL: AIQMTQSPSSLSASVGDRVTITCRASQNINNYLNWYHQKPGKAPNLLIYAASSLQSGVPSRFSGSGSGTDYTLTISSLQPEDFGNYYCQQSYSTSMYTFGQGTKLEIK",
    "measurement.unit": "nM",
    "numeric.readout": 20
  },
  {
    "binder": "H4H2346S (antibody, human IgG4, V domains shown, human IgG4 Fc (H4H)) VH: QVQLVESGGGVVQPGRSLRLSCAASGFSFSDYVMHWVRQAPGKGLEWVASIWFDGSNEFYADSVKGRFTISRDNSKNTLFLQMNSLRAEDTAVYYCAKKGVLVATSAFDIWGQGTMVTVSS VL: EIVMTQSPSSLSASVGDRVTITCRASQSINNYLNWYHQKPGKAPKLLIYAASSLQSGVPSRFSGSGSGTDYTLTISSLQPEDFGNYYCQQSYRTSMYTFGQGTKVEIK",
    "measurement.unit": "nM",
    "numeric.readout": 26
  },
  {
    "binder": "H4H2354S (antibody, human IgG4, V domains shown, human IgG4 Fc (H4H); also called H4H2354S-1) VH: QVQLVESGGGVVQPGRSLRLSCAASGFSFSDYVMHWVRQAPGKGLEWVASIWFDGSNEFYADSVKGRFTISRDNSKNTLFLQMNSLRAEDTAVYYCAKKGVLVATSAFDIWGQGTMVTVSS VL: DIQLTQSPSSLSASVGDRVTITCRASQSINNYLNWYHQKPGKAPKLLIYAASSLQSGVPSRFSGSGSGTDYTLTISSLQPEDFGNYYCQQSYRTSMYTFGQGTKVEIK",
    "measurement.unit": "nM",
    "numeric.readout": 22
  }
]
